Tested on: NCI-H522 lung
Assay: NCI tumour cell line growth inhibition, 48 h; in the data active = GI50 below about 0.43 µM; inactive = the rest
Outcome codes: active, inactive

>>> classification("O=C1c2ccccc2-c2c1c1ccccc1c(=O)n2CCCNCCO")
"inactive"
>>> classification("c1ccc(-c2nn(-c3ccccc3)[n+](-c3ccccc3-c3ccccc3)n2)cc1")
"inactive"
>>> classification("Cn1cc(C2=C(c3cccc(Cl)c3)C(=O)NC2=O)c2ccccc21")
"inactive"
>>> classification("O=C(c1nc2ccccc2[nH]1)C1C(c2cccc([N+](=O)[O-])c2)C2CC3CCCCC3N2[C@@]12C(=O)Nc1cc(Cl)ccc12 (stereo partly specified)")
"inactive"
>>> classification("O=C(CN1CCN(c2cc3c(cc2F)c(=O)c(C(=O)O)cn3C2CC2)CC1)Nc1ccc(C(=O)/C=C/c2ccccc2)cc1")
"inactive"
>>> classification("COc1cccc2c1C(=O)c1c(O)c3c(c(O)c1C2=O)C[C@@](O)(C(=O)CO)CC3OC1CC(NCCCCC(OC(C)=O)OC(C)=O)C(O)C(C)O1 (stereo partly specified)")
"active"
>>> classification("CC(C)=CCCC1(C)C=Cc2c(ccc3c2[nH]c2cc(O)c(C)cc23)O1 (stereo unspecified)")
"inactive"
>>> classification("CCn1c(-c2nonc2N)nc2c(C#CC(C)(C)O)ncc(OCC3CCNCC3)c21")
"inactive"
>>> classification("CCOC(=O)CCC(NC(=O)c1ccc(Nc2nc3cc(N)cc(N)c3nc2-c2ccccc2)cc1)C(=O)OCC (stereo unspecified)")
"inactive"
>>> classification("CCN(Cc1cccc(C)c1)c1ccc(CO)c(Cl)c1")
"inactive"
>>> classification("COC(=O)[C@@H](C)C[C@H](Cc1ccccc1)NC(=O)c1csc([C@@H](C[C@H](C(C)C)N(C)C(=O)[C@@H](NC(=O)CN(C)C)C2CC2)OC(C)=O)n1")
"active"
